target: pseudo-kinase domain (JH2, amino-acids 536-812) of human V617F mutant JAK2 (Homo sapiens, UniProt O60674, F794H/V617F/W659A/W777A); construct: pseudo-kinase domain (JH2, amino-acids 536-812 with 3 surface mutations W659A, W777A, F794H); His (C); experiment: JAK2 LanthaScreen JH2-V617F Binding Assay; conditions: JAK2 JH2-V617F 0.26 nM, 50 nM tracer, 1 hour at 25° C.; read-out: JH2 BIND V617F
Sequence (O60674 536-812 V617F/W659A/W777A/F794H): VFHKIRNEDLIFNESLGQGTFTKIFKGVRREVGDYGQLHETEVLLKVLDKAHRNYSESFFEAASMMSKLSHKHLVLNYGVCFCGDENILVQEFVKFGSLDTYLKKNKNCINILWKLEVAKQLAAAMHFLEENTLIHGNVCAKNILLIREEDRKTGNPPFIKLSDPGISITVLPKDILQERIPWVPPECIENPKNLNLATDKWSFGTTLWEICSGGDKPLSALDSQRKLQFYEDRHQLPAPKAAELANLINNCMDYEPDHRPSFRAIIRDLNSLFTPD
pIC50: −log10 of the molar value.
recorded.metric: pIC50

Below: 3 molecules and their reported pIC50.
[2H]C([2H])([2H])n1c(=O)n([C@]2([2H])CC[C@@H](NC(=O)OC)C2)c2cc(Nc3cc(C(C)(C)O)cc(-c4ncc(C(F)(F)F)s4)n3)ncc21 [Example 156]: ≥ 8.00
COC(=O)N[C@@H]1CC[C@@H](n2c(=O)n(C)c3cnc(Nc4cccc(OC5CCOCC5)n4)cc32)C1 [Example 37]: 7.00 to 8.00
COC(=O)N[C@@H]1CC[C@@H](n2c(=O)n(C)c3cnc(Nc4cccc(N5CCC(N)C5)n4)cc32)C1 (stereo partly drawn) [Example 64]: 7.00 to 8.00

Sample COC(=O)Nc1cc(Nc2cc3c(cn2)n(C)c(=O)n3[C@@H]2CC[C@@H](NC(=O)OC)C2)cc(C2CCCOC2)c1 (stereo partly drawn) [Example 21] — what was its pIC50?
≥ 8.00

Sample [2H]C([2H])([2H])n1c(=O)n([C@@H]2CC[C@@H](NC(=O)OC)C2)c2cc(Nc3ccc(OC)c(-c4ncc(C(F)(F)F)s4)n3)ncc21 [Example 98] — what was its pIC50?
≥ 8.00

Sample [2H]C([2H])([2H])n1c(=O)n([C@@H]2CC[C@@H](NC(=O)OC)C2)c2cc(Nc3ccc4c(n3)c(-c3cnn(C(F)(F)F)c3)cn4CCOC)ncc21 [Example 88] — what was its pIC50?
≥ 8.00

###

The entries below are paired with their reported IC50.
biological target: catalytic domain (JH1, amino acids 808-1132) of human JAK2 (Homo sapiens, UniProt O60674); assay: JAK2 HTRF Enzyme Activity Assay; settings: ATP 30 µM, 60 minutes at 25° C.; read-out: V617F ENZ 30 UM
Sequence (O60674 808-1132 limits assumed): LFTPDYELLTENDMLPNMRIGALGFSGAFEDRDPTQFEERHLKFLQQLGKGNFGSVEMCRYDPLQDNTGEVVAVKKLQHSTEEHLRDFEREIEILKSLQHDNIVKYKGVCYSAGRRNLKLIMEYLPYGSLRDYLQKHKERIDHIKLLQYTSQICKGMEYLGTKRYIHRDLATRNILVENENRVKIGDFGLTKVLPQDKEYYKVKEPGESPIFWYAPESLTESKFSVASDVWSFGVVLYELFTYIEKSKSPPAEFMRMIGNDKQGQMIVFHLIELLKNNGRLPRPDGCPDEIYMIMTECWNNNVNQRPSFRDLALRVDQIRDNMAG

COC(=O)N[C@@H]1CC[C@@H](n2c(=O)n(C)c3cnc(Nc4cccc(-c5ccc(CO)c(C)c5)n4)cc32)C1: > 1 µM
COC(=O)N[C@@H]1CC[C@@H](n2c(=O)n(C)c3cnc(Nc4ccc(F)c(-c5ccc(C(F)(F)F)nc5)n4)cc32)C1: > 1 µM
[2H]C([2H])([2H])n1c(=O)n([C@@H]2CC[C@@H](NC(=O)OC)C2)c2cc(Nc3ccc4c(n3)c(-c3cnn(C(F)(F)F)c3)cn4CCOC)ncc21: > 1 µM
[2H]C([2H])([2H])n1c(=O)n([C@@H]2CC[C@@]([2H])(NC(=O)OC)C2)c2cc(Nc3cc(C)c(F)c(-c4ncc(C(C)(C)O)s4)n3)ncc21: > 1 µM
CCOC(=O)c1cnc(Nc2cc(Nc3cc4c(cn3)n(C)c(=O)n4[C@@H]3CC[C@@H](NC(=O)OC)C3)cc(-c3cccc(C#N)c3)c2)o1: > 1 µM

In the following, a different molecule is considered.
Sample [2H]C([2H])([2H])n1c(=O)n([C@@H]2CC[C@@]([2H])(NC(=O)OC)C2)c2cc(Nc3cc(-c4cnccc4C(F)(F)F)cc(-c4ncc(C(C)(C)O)s4)n3)ncc21 — what was its IC50?
> 1 µM
